Molecular target: Renin (Homo sapiens, UniProt P00797)
Sequence (P00797 whole entry): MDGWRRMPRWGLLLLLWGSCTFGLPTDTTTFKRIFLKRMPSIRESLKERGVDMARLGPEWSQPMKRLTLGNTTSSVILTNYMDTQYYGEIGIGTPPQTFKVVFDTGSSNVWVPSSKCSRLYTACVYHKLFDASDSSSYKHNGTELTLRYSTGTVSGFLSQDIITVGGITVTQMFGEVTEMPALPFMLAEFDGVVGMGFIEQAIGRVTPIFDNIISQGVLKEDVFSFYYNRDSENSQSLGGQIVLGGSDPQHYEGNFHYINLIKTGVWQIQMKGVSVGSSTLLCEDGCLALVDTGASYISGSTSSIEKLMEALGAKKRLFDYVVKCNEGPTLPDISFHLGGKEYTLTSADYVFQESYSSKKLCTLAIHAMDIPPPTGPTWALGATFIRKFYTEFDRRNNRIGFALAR
Experiment: Inhibition of human recombinant renin by FRET based peptide cleavage assay
pIC50: −log10 of the molar value.
# maps each entry to its pIC50

>  <molecule>
CN1C(=O)C(c2ccccc2)(c2ccccc2)N=C1N

>  <pIC50>
5.02

$$$$
>  <molecule>
COc1ccc(C2(c3ccc(F)c(-c4cncnc4)c3)N=C(N)N(C)C2=O)cc1C (stereo not drawn)

>  <pIC50>
4.24

$$$$
>  <molecule>
COc1ccc(C2(C34CC5CC(CC(C5)C3)C4)N=C(N)N(C)C2=O)cc1C (stereo not drawn)

>  <pIC50>
4.23

$$$$
>  <molecule>
COc1ccc(C2(c3cccc(-c4cccnc4)c3)N=C(N)N(C)C2=O)cc1C (stereo not drawn)

>  <pIC50>
4.03

$$$$
>  <molecule>
COc1ccc(C2(c3ccc(F)c(-c4cccnc4F)c3)N=C(N)N(C)C2=O)cc1C (stereo not drawn)

>  <pIC50>
4.63

$$$$
>  <molecule>
CN1C(=O)C(c2ccc(OC(F)(F)F)cc2)(c2cc(F)cc(-c3cncnc3)c2)N=C1N (stereo not drawn)

>  <pIC50>
4.86

$$$$
>  <molecule>
COc1ccc(C2(c3cccc(-c4cncnc4)c3)N=C(N)N(C)C2=O)cc1C (stereo not drawn)

>  <pIC50>
4.37

$$$$
>  <molecule>
COc1ccc(C2(C34CC5CC(CC(C5)C3)C4)N=C(N)N(C)C2=O)cc1 (stereo not drawn)

>  <pIC50>
4.27

$$$$

###

target: Beta-secretase 1 (Homo sapiens, UniProt P56817); assay: Inhibition of BACE1 expressed in CHOK1 cells coexpressing human recombinant wild type APP assessed as blockade of amyloid beta production by ELISA
Sequence (P56817 whole entry): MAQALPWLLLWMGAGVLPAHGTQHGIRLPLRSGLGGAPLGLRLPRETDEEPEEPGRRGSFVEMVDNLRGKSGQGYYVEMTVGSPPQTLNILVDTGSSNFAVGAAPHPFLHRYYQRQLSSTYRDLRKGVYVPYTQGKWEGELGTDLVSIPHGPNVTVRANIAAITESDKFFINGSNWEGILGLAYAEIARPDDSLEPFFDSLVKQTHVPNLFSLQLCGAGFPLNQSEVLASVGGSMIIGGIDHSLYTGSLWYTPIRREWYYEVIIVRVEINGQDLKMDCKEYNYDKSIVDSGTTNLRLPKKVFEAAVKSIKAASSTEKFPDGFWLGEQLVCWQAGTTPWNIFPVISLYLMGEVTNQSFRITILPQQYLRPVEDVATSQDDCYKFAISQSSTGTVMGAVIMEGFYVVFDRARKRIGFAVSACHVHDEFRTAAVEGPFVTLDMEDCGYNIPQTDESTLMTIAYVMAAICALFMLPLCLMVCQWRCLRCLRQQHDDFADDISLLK
Recorded EC50 for the following compounds

>  <compound>
COc1ccc(C2(c3cccc(-c4cccnc4F)c3)N=C(N)N(C)C2=O)cc1C (stereo unspecified)

>  <EC50 (µM)>
0.11

$$$$
>  <compound>
COc1ncccc1-c1cccc(C2(c3ccc(OC(F)(F)F)cc3)N=C(N)N(C)C2=O)c1 (stereo unspecified)

>  <EC50 (µM)>
2.57

$$$$
>  <compound>
CN1C(=O)C(c2ccc(OC(F)(F)F)cc2)(c2cccc(-c3cncnc3)c2F)N=C1N (stereo unspecified)

>  <EC50 (µM)>
2.83

$$$$
>  <compound>
CCN1C(=O)C(c2ccccc2)(c2ccccc2)N=C1N

>  <EC50 (µM)>
8.13

$$$$
>  <compound>
CCc1cc(C2(C34CC5CC(CC(C5)C3)C4)N=C(N)N(C)C2=O)ccc1OC (stereo unspecified)

>  <EC50 (µM)>
0.76

$$$$
>  <compound>
CCCOc1cc(C2(c3cccc(-c4cccnc4)c3)N=C(N)N(C)C2=O)ccc1OC (stereo unspecified)

>  <EC50 (µM)>
0.68

$$$$

###

Molecular target: UniProtKB Q9Y5Z0
Sequence (Q9Y5Z0 whole entry): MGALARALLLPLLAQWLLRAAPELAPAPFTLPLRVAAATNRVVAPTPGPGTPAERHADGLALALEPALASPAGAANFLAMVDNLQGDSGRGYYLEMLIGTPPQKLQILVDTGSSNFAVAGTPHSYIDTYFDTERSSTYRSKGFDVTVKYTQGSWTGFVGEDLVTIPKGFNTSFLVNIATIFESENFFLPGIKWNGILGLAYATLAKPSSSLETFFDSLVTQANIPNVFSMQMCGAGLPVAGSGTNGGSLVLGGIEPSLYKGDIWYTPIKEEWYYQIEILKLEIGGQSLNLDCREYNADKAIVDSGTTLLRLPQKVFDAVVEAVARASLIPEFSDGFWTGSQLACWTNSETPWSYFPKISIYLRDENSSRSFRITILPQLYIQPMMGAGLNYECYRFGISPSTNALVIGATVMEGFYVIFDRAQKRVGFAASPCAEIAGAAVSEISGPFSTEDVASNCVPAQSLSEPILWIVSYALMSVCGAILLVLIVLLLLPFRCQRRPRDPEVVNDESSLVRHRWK
pIC50: −log10 of the molar value.
This listing pairs molecules with measured pIC50.
readout: pIC50

>  <molecule>
COc1ccc(C2(c3cccc(-c4cccnc4)c3)N=C(N)N(C)C2=O)cc1Cl (stereo unspecified)

>  <measured_number>
6.25

$$$$
>  <molecule>
COc1ccc(C2(c3ccc(C)c(-c4cccnc4)c3)N=C(N)N(C)C2=O)cc1C (stereo unspecified)

>  <measured_number>
6.02

$$$$
>  <molecule>
COc1ccc(C2(c3cccc(-c4cccnc4)c3)N=C(N)N(C)C2=O)cc1OC1CCCC1 (stereo unspecified)

>  <measured_number>
6.52

$$$$
>  <molecule>
CCCCOc1cc(C2(c3cccc(-c4cccnc4)c3)N=C(N)N(C)C2=O)ccc1OC (stereo unspecified)

>  <measured_number>
6.77

$$$$
>  <molecule>
CCN1C(=O)C(c2ccccc2)(c2ccccc2)N=C1N

>  <measured_number>
5.29

$$$$
>  <molecule>
CN1C(=O)C(c2cccc(-c3cccnc3)c2)(c2ccc3c(c2)OCO3)N=C1N (stereo unspecified)

>  <measured_number>
6.27

$$$$
